system: Human immunodeficiency virus 1; assay: Antiviral activity against HIV-1 3B harboring reverse transcriptase infected in human C8166 cells assessed as protection against virus-induced cytopathic effect incubated for 5 days by MTT assay; type: functional, organism-based; conditions: Human immunodeficiency virus 1, 3B, C8166, 120 h
// values below are reported log10 of EC50
quantity: log10 of EC50 (log10 of the value in nM)

- COc1c2c(cc3oc(CO)cc(=O)c13)OC(C)(C)C=C2: 3.99
- CC(C)=CCc1c(O)cc2oc(CO)cc(=O)c2c1O: 2.83
- C=CC(C)(C)c1cc2cc3c(cc2oc1=O)O[C@H](C(C)(C)O)[C@H]3O: 2.23
- C=CC(C)(C)c1cc2cc(C[C@@H](O)C(C)(C)O)c(O)cc2oc1=O: 2.83
- COc1cc2oc(CO)cc(=O)c2c(OC)c1CC=C(C)C: 3.12
- COc1cc2oc(CO)cc(=O)c2c(O)c1CC=C(C)C: 2.98
- COc1cc2oc(CO)cc(=O)c2c(O)c1CCC(C)(C)O: 1.95
- CCCCCC(O)/C=C/C=C\CCCCCC[C@@]1(O)C[C@H](C(=O)OC)[C@H](C(C)=O)O1 (stereo partly drawn): 1.90
